- method: reversal of MRP1-mediated doxorubicin resistance, pilot screen, H69AR cells, doxorubicin co-treatment (AID 601)
- test.context: H69AR cells + 2 uM doxorubicin, CellTiter-Glo, 72 h; at 10 µM; hits give high values
value.type: differential viability (reversal) (%)
Quick reminder: number only, in %, skip the unit.

Which value of differential viability (reversal) has been reported for O=C(CSc1nnc2ccccn12)NCCN1C(=O)CSC1=O in the records?
11.8

Which value of differential viability (reversal) has been reported for COC(=O)[C@@H](NC(=O)NCc1ccccc1Cl)C(C)C in the records?
-1.47

Which value of differential viability (reversal) has been reported for CCOC(=O)N1CCN(S(=O)(=O)c2cc(Cl)ccc2Cl)CC1 in the records?
2.05

Which value of differential viability (reversal) has been reported for COc1cc(OC)c(C2N(C)c3ccccc3N2C)cc1OC in the records?
8.16

Which value of differential viability (reversal) has been reported for CCOC(=O)C1C2C=CC3(CN(c4cccc(Cl)c4)C(=O)C13)O2 (configuration not stated) in the records?
1.17

Which value of differential viability (reversal) has been reported for CCOc1ccccc1OCC(=O)Nc1nnc(COC)s1 in the records?
-1.57

Which value of differential viability (reversal) has been reported for COC(=O)n1c(=S)oc2cc(Cl)ccc21 in the records?
3.97

Which value of differential viability (reversal) has been reported for O=C(NCC1CCCO1)C1CCCN(Cc2cnn(-c3ccccc3)c2-n2cccc2)C1 (configuration not stated) in the records?
40.7

Which value of differential viability (reversal) has been reported for Cc1nc2ccc(NC(=O)N3CCC(c4ccccc4)C3)cc2nc1C (configuration not stated) in the records?
9.41

Which value of differential viability (reversal) has been reported for CC(C)(C)NC[C@H](O)COc1nsnc1N1CCOCC1 in the records?
2.23

Which value of differential viability (reversal) has been reported for c1cncc(-c2nnc3n2N=C(c2cccs2)CS3)c1 in the records?
4.06

Which value of differential viability (reversal) has been reported for Cc1cc(C)n(-c2nc3nonc3nc2-n2nc(C)cc2C)n1 in the records?
14.7
